assay: Mouse plasma pharmacokinetics after a single 25 mg/kg sc dose (LC-MS, non-compartmental model); settings: female BALB/c mice, single 25 mg/kg sc, percentage of time above the MIC over 3 h
# %T>MIC annotations

// known answers, use as guide
CSC1=C(C(=O)[O-])N2C(=O)[C@H]([C@@H](C)O)[C@H]2[C@H]1C.[Na+] : 33–100%
C[C@@H](O)[C@H]1C(=O)N2C(C(=O)[O-])=C(SCCC(=O)N3CCOCC3)[C@H](C)[C@H]12.[Na+] : 8.3–33%
C[C@@H](O)[C@H]1C(=O)N2C(C(=O)[O-])=C(SCCc3ccccc3)[C@H](C)[C@H]12.[Na+] : 8.3–33%
C[C@@H](O)[C@H]1C(=O)N2C(C(=O)[O-])=C(SC3Cn4cnc[n+]4C3)[C@H](C)[C@H]12 (some centres unmarked) [Biapenem, reference compound] : 33–100%

Read the next record carefully.
Ask | Return reported %T>MIC. Input compound: C[C@@H](O)[C@H]1C(=O)N2C(C(=O)O)=C(S[C@@H]3CN[C@H](C(=O)N(C)C)C3)[C@H](C)[C@H]12 [Meropenem, reference compound]
Reply | <8.3%

Where these numbers come from: paper PMC8092647
